target: HLA-B*46:01; test: IEDB peptide-MHC binding, purified MHC/competitive/fluorescence; filed as Kd, often an IC50 or EC50 that approximates it; bounds were set here for any values at or beyond the usual limits of such assays; conditions: source organism: Homo sapiens
pKd: −log10 of the molar value.
value kind: pKd

- sequence content: "VTSSVSSGY"
  reported: "≤ 4.70"

---

Listing: Kd of selected sequences
molecular target: HLA-A*01:01; assay: IEDB peptide-MHC binding, purified MHC/competitive/radioactivity; filed as Kd, often an IC50 or EC50 that approximates it; bounds were set here for any values at or beyond the usual limits of such assays; details: source organism: SARS coronavirus Tor2
value kind: Kd

- sequence content: "GYLKPTTFML"
  tested on: "HLA-A*01:01"
  reported: "≥ 28.4 µM"
- sequence content: "EYADVFHLY"
  tested on: "HLA-A*01:01"
  reported: "≥ 26.2 µM"
- sequence content: "DEEPMELDY"
  tested on: "HLA-A*01:01"
  reported: "2 µM"
- sequence content: "LYEQVVMDY"
  tested on: "HLA-A*01:01"
  reported: "15.1 µM"
- sequence content: "EMVMCGGSLY"
  tested on: "HLA-A*01:01"
  reported: "0.468 µM"
- sequence content: "DTVWEVQGY"
  tested on: "HLA-A*01:01"
  reported: "8.02 µM"
- sequence content: "DHEFVDEFY"
  tested on: "HLA-A*01:01"
  reported: "0.262 µM"
- sequence content: "VYIGDPAQL"
  tested on: "HLA-A*01:01"
  reported: "≥ 78.1 µM"
- sequence content: "QMYKTPTLKY"
  tested on: "HLA-A*01:01"
  reported: "8.92 µM"
- sequence content: "TSQKSIVAY"
  tested on: "HLA-A*01:01"
  reported: "1.18 µM"

---

Listing: pKd of selected sequences
molecular target: HLA-B*44:03; assay: IEDB peptide-MHC binding, purified MHC/competitive/radioactivity; filed as Kd, often an IC50 or EC50 that approximates it; bounds were set here for any values at or beyond the usual limits of such assays; conditions: source organism: Dengue virus 1 Brazil/97-11/1997
pKd: −log10 of the molar value.
value kind: pKd

- sequence content: "IESEKNETW"
  value kind: "pKd"
  reported: 6.55
- sequence content: "NEHKSTWHY"
  value kind: "pKd"
  reported: 6.76
- sequence content: "NEVHTWTEQ"
  value kind: "pKd"
  reported: 5.18
- sequence content: "IEEVMRSRW"
  value kind: "pKd"
  reported: 7.44

---

target: HLA-B*27:05; test: IEDB peptide-MHC binding, purified MHC/competitive/fluorescence; filed as Kd, often an IC50 or EC50 that approximates it; bounds were set here for any values at or beyond the usual limits of such assays; conditions: source organism: Shigella boydii CDC 3083-94

- sequence content: "WRLVYASAV"
  Kd: "75.3 nM"

---

molecular target: HLA-C*12:03; assay: IEDB peptide-MHC binding, purified MHC/direct/fluorescence; filed as Kd, often an IC50 or EC50 that approximates it; bounds were set here for any values at or beyond the usual limits of such assays; details: source organism: Giardia lamblia ATCC 50803

- sequence content: "YLYLRPYAL"
  tested on: "HLA-C*12:03"
  units text: "nM"
  Kd: 29

Every entry's value here was drawn from the Immune Epitope Database (IEDB).
